Values from patent US20120093811A1

Catalogue of binders with associated Fold-improvement with respect to Ig-1A
Target: T1, Source 1 VEGF-D, mature dimeric recombinant human VEGF-D (CSIRO) (human, UniProt O43915 89-205)
T1 construct: Whole entry named; also called Source 1 VEGF-D dimer; VEGF-D dimer
T1 sequence: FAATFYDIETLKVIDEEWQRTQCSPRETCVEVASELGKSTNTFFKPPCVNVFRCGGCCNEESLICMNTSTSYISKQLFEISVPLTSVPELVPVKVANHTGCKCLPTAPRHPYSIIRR
Assay: SPR Protocol A, KD against that of Ig-1A
endpoint label: Fold-improvement with respect to Ig-1A (fold)

binder	unit abbrev	reading
humanized IgG antibody derived from clone HH69 (antibody, V domains shown, IgG) VH: QVQLVQSGAKVKQPGASVKASCKASGYTFTGYNMYWVRQAPGQGLEWMGYIDPYSGDTTYNQKFKGRVTMTTDTSTSTAYMELRSLRSDDTAVYYCARTSYYGGMDYWGRGTLVTVAS VL: DIVMTQTPLSGPVTLGQPASISCRSSQSLVHSNGNTYLHWLQQRPGQPPRLLIYKVSNRFSGVPDRFSGSGAGTDFTLKISRVEAEDVGVYYCSQSTHVPRTFGRGTKLEIKR	fold	3.5
humanized IgG antibody derived from clone HX28 (antibody, V domains shown, IgG) VH: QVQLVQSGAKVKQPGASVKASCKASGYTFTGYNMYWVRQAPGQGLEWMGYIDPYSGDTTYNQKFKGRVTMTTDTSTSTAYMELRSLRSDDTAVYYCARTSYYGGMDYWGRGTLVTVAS VL: DIVMTQTPLSSPVTLGQPASISCRSSQSLVHSNGNTYLHWLQQRPGQPPRLLIYKVSNRFSGVPGRFSGSGAGTDFTLKISRVEAEDVGVYYCSQSTHVPRTFGQGTKLEIKR	fold	1.8
humanized IgG antibody derived from clone HH41 (antibody, V domains shown, IgG; also called HH41#1; HH41#2) VH: QVQLVQSGAEVKQPGASVKVSCKASGYTFTGYNMYWVRQAPGQGLEWMGYIDPYNGDTTYNQKFKGRVTMTTDTSTSTAYMKLRSLRSDDTAVYYCARTSYYGGMDYWGRGTLVTVAS VL: DIVMTQTPLSSPVTLGQPASISCRSSQSLVHGNGNTYLHWLQQRPGQPPRLLIYKVSNRFSGVPDRFSGSGAGTDFTLKISRVEAEDVGVYYCSQSTHVPRTFGQGTKLEIKR	fold	1.9
